# test_system: Zymomonas mobilis fructokinase EC 2.7.1.4 (Zymomonas mobilis subsp. mobilis, UniProt Q03417)
# Construct: endogenous in cells
# Sequence (Q03417 1-301): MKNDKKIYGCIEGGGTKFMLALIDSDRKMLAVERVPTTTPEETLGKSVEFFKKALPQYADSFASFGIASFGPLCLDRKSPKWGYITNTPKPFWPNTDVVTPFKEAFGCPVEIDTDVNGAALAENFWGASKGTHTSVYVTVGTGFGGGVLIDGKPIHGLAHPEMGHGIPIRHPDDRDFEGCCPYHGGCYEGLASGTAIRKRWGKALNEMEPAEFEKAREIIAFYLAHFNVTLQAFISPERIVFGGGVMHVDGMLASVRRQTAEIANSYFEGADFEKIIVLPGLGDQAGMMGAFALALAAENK
# assay_comment: Kinetic properties, sugar specificity and glucose inhibition of purified fructokinase
# experimental_context: competitive inhibitor with fructose
pKi: −log10 of the molar value.
measured_metric: pKi

                                   compound  measured_metric  result
0  OC[C@H]1OC(O)[C@H](O)[C@@H](O)[C@@H]1O (stereo partly shown)              pKi    3.70
